- assay_remarks: in vitro
- Assay type: cell-based
- details: mouse; RAW264.7 cells; 20 μM for 2 h, then LPS (500 ng/mL) 20 h; read-out: Cell viability, Average (%)
result_type: viability at 22 h, 20 μM

Exam item: // Input: N#CC1=C(N)Oc2c(c(=O)oc3ccccc23)C1c1ccccc1 (stereo not drawn) [Coumarin derivative 23] . Output its viability at 22 h, 20 μM only.
Marked response: 119%

Exam item: // Input: COc1ccccc1C1C(C#N)=C(N)Oc2c1c(=O)oc1ccccc21 (stereo not drawn) [Coumarin derivative 15] . Output its viability at 22 h, 20 μM only.
Marked response: 109%

Exam item: // Input: COc1ccc(C2C(C#N)=C(N)Oc3c2c(=O)oc2ccccc32)cc1 (stereo not drawn) [Coumarin derivative 17] . Output its viability at 22 h, 20 μM only.
Marked response: 122%
